# target entity: huCTLA4 (Homo sapiens, UniProt P16410)
# Sequence (P16410 36-223): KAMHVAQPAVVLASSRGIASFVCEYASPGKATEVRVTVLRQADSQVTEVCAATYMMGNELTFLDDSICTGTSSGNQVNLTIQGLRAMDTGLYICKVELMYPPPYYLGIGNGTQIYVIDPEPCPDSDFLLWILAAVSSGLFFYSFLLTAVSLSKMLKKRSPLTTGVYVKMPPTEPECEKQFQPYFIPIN
# measurement protocol: Flow binding to CHO cells stably expressing CTLA4
# Set-up: huCTLA4 and huPD-L1, full-length mammalian surface expression constructs were generated; expressed in transfected cells; host or cells: CHO cells, lentiviral transduction, sorted to >98% purity
# condition set: Table E25; linker variants; 33.3 nM; CHO cells stably expressing CTLA4
measurement kind: CTLA4 MFI at 33.3 nM
Give the value as a plain number.

molecule	measurement kind	quantitative readout
E35D/M47V/N48K/V68M/K89N delta (protein) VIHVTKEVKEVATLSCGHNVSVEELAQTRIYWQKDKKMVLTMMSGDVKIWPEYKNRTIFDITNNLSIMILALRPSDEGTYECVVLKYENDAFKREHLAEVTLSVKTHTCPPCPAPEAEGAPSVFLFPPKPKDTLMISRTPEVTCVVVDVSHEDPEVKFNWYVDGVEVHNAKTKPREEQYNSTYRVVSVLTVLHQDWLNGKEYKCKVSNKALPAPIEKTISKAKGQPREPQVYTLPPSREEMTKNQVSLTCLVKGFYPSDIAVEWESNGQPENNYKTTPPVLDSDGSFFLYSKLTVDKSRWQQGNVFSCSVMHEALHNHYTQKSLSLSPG	CTLA4 MFI at 33.3 nM	3091
E35D/D46V/M47L/V68M/L85Q/E88D delta (protein) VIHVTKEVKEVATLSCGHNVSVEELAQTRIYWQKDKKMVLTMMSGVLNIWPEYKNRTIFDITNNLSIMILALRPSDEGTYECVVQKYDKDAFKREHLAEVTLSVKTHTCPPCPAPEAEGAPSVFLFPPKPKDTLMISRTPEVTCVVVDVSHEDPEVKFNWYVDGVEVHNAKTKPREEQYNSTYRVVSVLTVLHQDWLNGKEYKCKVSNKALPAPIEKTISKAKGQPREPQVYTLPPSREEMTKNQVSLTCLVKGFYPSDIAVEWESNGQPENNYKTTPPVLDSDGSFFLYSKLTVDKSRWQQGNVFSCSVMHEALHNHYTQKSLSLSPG	CTLA4 MFI at 33.3 nM	12177

Then this molecule:
Query block: Query: CTLA4 MFI at 33.3 nM; subject: E35D/D46V/M47L/V68M/L85Q/E88D (EAAAK)3 (protein, UniProt P33681 35-288, looked up, variant E35D D46V M47L V68M L85Q E88D, (EAAAK)3 linker) T-lymphocyte activation …: VIHVTKEVKEVATLSCGHNVSVEELAQTRIYWQKDKKMVLTMMSGVLNIWPEYKNRTIFDITNNLSIMILALRPSDEGTYECVVQKYDKDAFKREHLAEVTLSVKADFPTPSISDFEIPTSNIRRIICSTSGGFPEPHLSWLENGEELNAINTTVSQDPETELYAVSSKLDFNMTTNHSFMCLIKYGHLRVNQTFNWNTTKQEHFPDNLLPSWAITLISVNGIFVICCLTYCFAPRCRERRRNERLRRESVRPV
Result block: 32048
